# testedTarget: Human spleen cathepsin S (Homo sapiens, UniProt P25774)
# Construct: Human spleen cathepsin S (Calbiochem 219344, 40 ng/mL); purchased Calbiochem 219344; host or cells: human spleen
# Sequence (P25774 115-331): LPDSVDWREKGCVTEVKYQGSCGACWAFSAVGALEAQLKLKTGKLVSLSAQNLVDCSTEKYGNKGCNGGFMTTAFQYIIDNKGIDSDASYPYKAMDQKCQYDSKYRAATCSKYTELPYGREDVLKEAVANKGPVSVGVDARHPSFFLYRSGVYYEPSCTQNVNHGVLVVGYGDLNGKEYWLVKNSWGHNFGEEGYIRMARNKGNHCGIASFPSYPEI
# testDescription: Cathepsin S assay, IC50 determination
# Assay type: biochemical
# conditionSet: Cathepsin S; no preincubation; 30 min; read-out: IC50 @ 30 min
endpointLabel: IC50 (nM)

• CCc1ccccc1NC(=O)CSC(=O)NNC(=O)[C@H](Cc1c[nH]c2ccccc12)NC(=O)OC(C)(C)C = 745

* * *

# testedTarget: Human spleen cathepsin S (Homo sapiens)
# Construct: Human spleen cathepsin S (Calbiochem 219344, 40 ng/mL); purchased Calbiochem 219344; host or cells: human spleen
# testDescription: Cathepsin S assay, IC50 determination
# Format: biochemical
# conditionSet: Tables 2-11; read-out: Cat S
# Experimental: Human spleen cathepsin S (Calbiochem 219344, 40 ng/mL) was assayed using 15 microM Z-Phe-Arg-AMC substrate. Human liver cathepsin B (Calbiochem 219362, 65 ng/mL) was assayed using 15 microM Z-Arg-Arg-AMC substrate (Bachem I-1135). All reactions were performed in 20 mM sodium acetate buffer containing 1 mM EDTA and 5 mM cysteine, pH 5.5. […]
pIC50: −log10 of the molar value.
endpointLabel: pIC50

- CC(C)(C)OC(=O)N[C@@H](Cc1c[nH]c2ccccc12)C(=O)NNC(=O)OCC(=O)N1CCCc2ccccc21: 7.60
- CC(C)(C)OC(=O)N[C@@H](Cc1c[nH]c2ccccc12)C(=O)NNC(=O)NCC(=O)N1CCCc2ccccc21: 4.89
